Could you please report measured efflux inhibition (fraction of control) for the items listed next?
# assay.overview: Nile Red efflux blockade in pump-expressing yeast – validation compound set, multiplex, phenotypic, pilot screen (AID 588506);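 also: Nile Red retained in cells so higher fluorescence means more efflux inhibition; 0 = negative control wells and 1 = enniatin B 25 µM full block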
# measurement.conditions: S. cerevisiae pump-expressing triplex, Nile Red efflux flow cytometry; at 10 µM; hits give high values; the pumps come from Candida albicans
Write no unit; give the number alone.

input: Quick one: give measured efflux inhibition (fraction of control) for CC(=O)NC1C(OCc2ccccc2)OC(COC(C)=O)C(OC(C)=O)C1OC(C)=O (stereo unspecified)
output: 0.12

input: Report efflux inhibition (fraction of control) for CC(=O)OC(C)C[N+](C)(C)C (stereo unspecified)
output: 0

input: Tell us which efflux inhibition (fraction of control) value is on record for CN1/C(=C\C=Nc2ccccc2)C(C)(C)c2ccccc21
output: 0

input: Answer with reported efflux inhibition (fraction of control) of O=C(COc1ccc(F)cc1)OCCN1CCOCC1
output: -0.1

input: Fill in reported efflux inhibition (fraction of control) for this entry: C=CCOC(=O)C1=C(C)NC(=O)NC1/C=C/c1ccccc1OC (stereo unspecified)
output: -0.03

input: Fill in reported efflux inhibition (fraction of control) for this entry: CC(=O)[C@H]1[C@H](C#N)C[C@H]2[C@@H]3CC=C4C[C@@H](O)CC[C@]4(C)[C@H]3CC[C@@]21C
output: -0.28

input: Specify efflux inhibition (fraction of control) for COCCCN1C(=O)/C(=C\c2cccs2)C(C(=O)OC)=C1C and stop.
output: -0.06

input: Determine its reported efflux inhibition (fraction of control): COc1ccc(NC2=C(Cl)C(=O)N(c3ccccc3)C2=O)c(OC)c1
output: -0.25

input: Determine its reported efflux inhibition (fraction of control): O=c1c2[nH]c3ccccc3c2ncn1CCC1=CCCCC1
output: 0.01

input: // Input: CSCC[C@H](NC(=O)NC1CCCC1)C(=O)O . Output its efflux inhibition (fraction of control) only.
output: 0.34

input: Return efflux inhibition (fraction of control) (reported value) for this molecule: O=C(NCCNc1ccc(Cl)cc1[N+](=O)[O-])c1cccnc1
output: -0.22

* * *

Please respond with reported percent response of DMSO control for every item in the list.
# assay.overview: TOR pathway RTG branch CIT2 reporter changes – S. cerevisiae, GFP fusion, multiplex flow cytometry, primary screen (AID 1870);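 also: barcoded CIT2-GFP strain pooled with four other GFP strains with rapamycin as positive control; median GFP fluorescence per well over plate mean of DMSO wells so 100% = DMSO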
# measurement.conditions: S. cerevisiae CIT2-GFP expression, 3 h, at 10 µM, hits give high values
Reply numerically in %, unit not repeated.

input: Report measured percent response of DMSO control; entry is O=Cc1ccc(OC(=O)c2cccnc2)cc1
output: 107

input: Fill in reported percent response of DMSO control for this entry: CCCC(CCC)C(=O)OC1C[C@H]2CC[C@@H](C1)[N+]2(C)C (stereo partly specified)
output: 93.9

input: Look up and report measured percent response of DMSO control for this entry: COc1cccc(CN2C(=O)N(C(C)C)C(N(O)C(=O)NC(C)C)C2(C)C)c1OC (stereo unspecified)
output: 115

input: Given O=C(NCCc1c[nH]c2ccccc12)OCCSS(=O)(=O)O , respond with its percent response of DMSO control.
output: 108

input: Return the recorded percent response of DMSO control value; entry: COc1ccc(NC(=O)C2CCCN2C(=O)OC(C)(C)C)cc1 (stereo unspecified)
output: 100

input: Tell me its percent response of DMSO control given COc1ccccc1N1C(=O)C2CC(C)=C(C)CC2C1=O (stereo unspecified) as the entry.
output: 99.3

input: // Input: CCCCOc1ccc(CC(=O)NO)cc1 . Output its percent response of DMSO control only.
output: 106

input: Tell me measured percent response of DMSO control for CCOC(=O)C(=O)N1CCN(c2ccccc2OC)CC1 please.
output: 98.6

input: Give the reported value of percent response of DMSO control for this record: CCNC(=S)N1CCN(CCN2C(=O)c3cccc4cccc(c34)C2=O)CC1
output: 106

input: Tell me its percent response of DMSO control given CC1(c2ccccc2)CC(C)(C)N2C(=O)C(=O)c3cccc1c32 (stereo unspecified) as the entry.
output: 99.6

input: Please report the measured percent response of DMSO control for C/C(=N\NC(=O)C1(C)CC1(Br)Br)c1ccc([N+](=O)[O-])cc1 (stereo unspecified)
output: 105

input: Answer with the recorded percent response of DMSO control for the compound listed here: CC(C)(C)C(=O)N1CCCC1C(=O)O (stereo unspecified)
output: 99

input: Output measured percent response of DMSO control for this item: S=C(c1ccc2c(c1)OCO2)N1CCCCC1
output: 104

input: # return recorded percent response of DMSO control for entry Cc1coc2c1c(C)cc1oc(=O)c(Cc3ccccc3)c(C)c12
output: 102

input: Provide one value: measured percent response of DMSO control of Cc1ccc(-c2nnc(-c3ccc4c(c3)OCO4)o2)cc1
output: 109

input: Consider the compound Cc1csc(N)n1 and give its recorded percent response of DMSO control.
output: 114

input: Report percent response of DMSO control, nothing else, for this compound: c1ccc(-c2ccccn2)nc1
output: 107

input: Please list percent response of DMSO control recorded for the compound Cc1ccc(C2CC(c3cccs3)=NN2C(=O)c2ccco2)o1 (stereo unspecified)
output: 89.3

input: Give a short answer stating reported percent response of DMSO control for COc1ccc(C(=O)Nc2cccc3cccnc23)cc1OC .
output: 105

input: Assign percent response of DMSO control to the following record: O=C(COc1ccccc1)Nc1ccc2c(c1)C(=O)N(CC1CCCO1)C2=O (stereo unspecified)
output: 102

input: Let me know recorded percent response of DMSO control for Cc1ccc2c(c1C)NC(C(=O)O)C1CC=CC21 (stereo unspecified) , thanks.
output: 105

input: Specify percent response of DMSO control for CC12CCC(C(=O)NCc3ccccn3)(OC1=O)C2(C)C (stereo unspecified) and stop.
output: 103

input: Tell us which percent response of DMSO control value is on record for CCc1c(C(C)=O)oc2ccc3c(C)cc(=O)oc3c12
output: 115

input: Provide only the value of recorded percent response of DMSO control for Cc1ccc2c(c1)C1OCCC1C1N2C(=O)C2C(C(=O)O)C3C=CC21O3 (stereo unspecified)
output: 110

input: Respond only with percent response of DMSO control recorded for CCCCC[C@H](O)/C=C/C1=C(CCCCCCC(=O)O)C(=O)CC1
output: 101

input: State, in one line, measured percent response of DMSO control of COc1cc(C(=S)N(C)C)ccc1O
output: 113

input: Give the value of percent response of DMSO control reported for the following: COc1ccc2oc(-c3ccco3)cc(=O)c2c1
output: 100

input: Indicate its recorded percent response of DMSO control; the compound in question is COC(=O)c1cc(COc2ccc3ccc(=O)oc3c2)c(C)o1
output: 101

input: Specify percent response of DMSO control for COC1CCN(Cc2cn(Cc3ccccc3)nc2-c2cc3ccccc3o2)CC1 and stop.
output: 102

input: Report measured percent response of DMSO control; entry is Cc1cc(=O)oc2c(CN(C)Cc3ccccc3)c(O)ccc12
output: 105

input: // fetch percent response of DMSO control given entry CCN1CCN(C(=S)c2ccc(OC)cc2)CC1
output: 109

input: Give the value of percent response of DMSO control reported for the following: FC(F)(F)c1ccc(-c2noc(CN3CCCN(C4CCCCC4)CC3)n2)cc1
output: 101

input: Write down percent response of DMSO control measured for item C/C(CCc1oc2ccc(Cl)cc2c1-c1ccc(C)o1)=N\O
output: 103

input: State its percent response of DMSO control: CN(C)CCOC(c1ccccc1)c1ccccc1 (tested in a mixture with another compound)
output: 98.9

input: Provide only the value of recorded percent response of DMSO control for CN1C(C(=O)Nc2ccccn2)=C(O)c2ccccc2S1(=O)=O
output: 86.1

input: Please report the measured percent response of DMSO control for COc1cc(CNCc2ccc(OC)c(OC)c2OC)cc(OC)c1
output: 105

input: Please indicate percent response of DMSO control recorded for Cc1ccc(S(=O)(=O)N[C@@H](C)C(=O)N2CCC(C(=O)N3CCC[C@H]3C(=O)O)CC2)cc1
output: 103

input: Entry Cn1cc(CN2CCN(CCO)CC2)c(-c2ccc(Oc3ccccc3)cc2)n1 needs its percent response of DMSO control filled in; supply it.
output: 96.7

input: Supply percent response of DMSO control value. Item: CC(=O)[C@@]1(O)CC[C@H]2[C@@H]3C[C@H](C)C4=CC(=O)C=C[C@]4(C)[C@@]3(F)[C@@H](O)C[C@@]21C
output: 110

input: Indicate the recorded percent response of DMSO control value for this compound: COc1ccc(OC(C)C(=O)Nc2ccc([N+](=O)[O-])cc2)cc1 (stereo unspecified)
output: 99.7

input: Dear colleague, please send me the reported percent response of DMSO control for COc1ccc(OCc2cccc(C(=O)NN)c2)cc1 when you can.
output: 105

input: Tell us which percent response of DMSO control value is on record for CC(=O)Oc1ccc(C(c2ccc(OC(C)=O)cc2)c2ccccn2)cc1
output: 99.6

input: Note down percent response of DMSO control recorded for CC1(C)CC(CC(=O)O)(c2ccc(Cl)cc2)CCO1 (stereo unspecified)
output: 96.6

input: Quickly give me recorded percent response of DMSO control for CCCCCCCC(=O)OCC(=O)[C@@]1(O)CC[C@H]2[C@@H]3CCC4=CC(=O)CC[C@]4(C)[C@H]3[C@@H](O)C[C@@]21C
output: 98.9

input: Identify percent response of DMSO control associated with the compound COc1ccc(C(=O)Nc2ncc3c(n2)CC(C)CC3=O)cc1 (stereo unspecified)
output: 105

input: Hello, please tell me recorded percent response of DMSO control for this one: O=C(c1cccnc1)N1N=C(C2CC2)CC1(O)C(F)(F)F (stereo unspecified)
output: 93.9
